Biological target: T1, Cynomolgus PD-1 extracellular domain, hFc tag (cynomolgus, UniProt B0LAJ3 25-170)
T1 construct: Bought; also called cynoPro1.ECD.hFc; cyno PD-1 ECD protein
T1 sequence (B0LAJ3 entry or part of it limits assumed): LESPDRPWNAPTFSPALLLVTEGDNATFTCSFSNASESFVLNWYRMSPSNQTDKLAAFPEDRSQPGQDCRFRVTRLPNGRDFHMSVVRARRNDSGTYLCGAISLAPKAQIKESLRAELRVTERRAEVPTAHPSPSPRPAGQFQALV
Assay: SPR Biacore 8K; PD-1-hFc captured on anti-human Fc chip, VHH injected; 1:1 fit
Procedure: To screen WBP3056 VHH antibodies from affinity maturation, koff to hPro1.ECD.hFc, mPro1.ECD.hFc and cynoPro1.ECD.hFc (AcrobioSystems) was detected by SPR assay using Biacore 8K. hPro1.ECD.hFc, mPro1.ECD.hFc or cynoPro1.ECD.hFc (AcrobioSystems) was captured on an anti-human IgG Fc antibody immobilized CM5 sensor chip. Each VHH antibody was injected over the sensor chip at a flow rate of 30 uL/min for an association phase of 120 s, followed by 150 s dissociation. […]
Measured Quantity: kon (M⁻¹ s⁻¹)
# output: bare number, implied unit M⁻¹ s⁻¹

For AP17R1-2H2-Z1-R1-29B2 (VHH, not shown: his- and c-Myc-tag from vector pETbac) VHH: QVQLVESGGGVVQPGGSLRLSCAASDSIDSLVNMGWYRQAPGKQRELVALIANYITHYADFVKGRFTISRDNSKNTLYLQMNSLRAEDTAVYYCYARNIRVDYWGQGTLVTVSS , what is its reported kon?
318000

Quick check: kon of AP17R1-2H2-Z1-R1-6E1 (VHH, not shown: his- and c-Myc-tag from vector pETbac) VHH: QVQLVESGGGVVQPGGSLRLSCAASDSIDSMVNMGWYRQAPGKQRELVALIANYITHYADFVKGRFTISRDNSKNTLYLQMNSLRAEDTAVYYCYARNIIVDYWGQGTLVTVSS ?
341000

Which kon is reported for this binder? AP17R1-2H2-Z1-R1-30D3 (VHH, not shown: his- and c-Myc-tag from vector pETbac) VHH: QVQLVESGGGVVQPGGSLRLSCAASDSIDSLVNMGWYRQAPGKQRELVALIANYITHYADFVKGRFTISRDNSKNTLYLQMNSLRAEDTAVYYCYARNIIEDYWGQGTLVTVSS
325000

Name the reported kon value associated with the binder AP17R1-2H2-Z1-R1-14A1 (VHH, not shown: his- and c-Myc-tag from vector pETbac) VHH: QVQLVESGGGVVQPGGSLRLSCAASDSIDSLVNMGWYRQAPGKQRELVALIATYITHYADFVKGRFTISRDNSKNTLYLQMNSLRAEDTAVYYCYARNIIVDYWGQGTLVTVSS
424000
